# experimental.target: TpMglB-2 (Tp0684), wild-type (Treponema pallidum, UniProt Q08255)
# Sequence (Q08255 36-403): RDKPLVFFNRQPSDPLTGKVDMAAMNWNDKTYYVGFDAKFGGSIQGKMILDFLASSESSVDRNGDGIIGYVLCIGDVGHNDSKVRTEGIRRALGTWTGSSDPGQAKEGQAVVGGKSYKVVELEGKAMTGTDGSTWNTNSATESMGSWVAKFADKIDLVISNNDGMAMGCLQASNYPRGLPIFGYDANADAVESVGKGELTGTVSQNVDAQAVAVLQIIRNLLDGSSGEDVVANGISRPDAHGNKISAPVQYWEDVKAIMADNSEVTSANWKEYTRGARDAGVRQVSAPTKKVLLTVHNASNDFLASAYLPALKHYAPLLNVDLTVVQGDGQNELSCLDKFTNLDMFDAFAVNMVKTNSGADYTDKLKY
readout.name: Kd (nM)

OC[C@H]1OC(O)[C@H](O)[C@@H](O)[C@@H]1O (stereo partly shown) | 1100

====

# experimental.target: TpMglB-2 W145A (Treponema pallidum, UniProt Q08255, W170A)
# Construct: the DNA fragment encoding amino acid residues 11–378 (cloned without the post-translationally modified N-terminal Cys); made in house; host or cells: E. coli BL21 AI
# Sequence (Q08255 36-403 W170A): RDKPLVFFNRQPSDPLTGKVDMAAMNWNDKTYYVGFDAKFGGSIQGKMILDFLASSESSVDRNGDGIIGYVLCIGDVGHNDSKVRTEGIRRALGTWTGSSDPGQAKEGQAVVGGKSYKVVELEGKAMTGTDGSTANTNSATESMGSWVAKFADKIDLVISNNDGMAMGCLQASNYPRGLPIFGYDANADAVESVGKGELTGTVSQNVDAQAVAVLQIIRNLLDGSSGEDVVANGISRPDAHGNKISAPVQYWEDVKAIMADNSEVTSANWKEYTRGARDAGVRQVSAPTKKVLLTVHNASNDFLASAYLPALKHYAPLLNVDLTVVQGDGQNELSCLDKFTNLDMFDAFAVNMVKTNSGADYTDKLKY
# test.summary: ITC of D-glucose into TpMglB-2 W145A variant
# Assay type: binding
# particulars: W145A variant, 68.3% confidence intervals in brackets
pKd: −log10 of the molar value.
readout.name: pKd

OC[C@H]1OC(O)[C@H](O)[C@@H](O)[C@@H]1O (stereo partly drawn) [D-glucose] | 4.90
